- experiment: Drug uptake in C57BL/6 mouse brain at 1 mg/kg, sc measured after 60 mins
- Format: ADME, organism-based
- run conditions: read-out: Drug uptake
experimental readout: concentration at 1 h (µM)

molecule | recorded number
O=C1N[C@H](c2cncc(C#Cc3ncccc3F)c2)[C@@H](c2ccc(F)cc2)O1 | 0.056

* * *

- experiment: Fraction unbound in mouse serum
- Type: ADME, cell-free
In this section we review reported fraction unbound values for a set of molecules.
experimental readout: fraction unbound

molecule | recorded number
O=C1N[C@H](c2cccc(C#Cc3ccccc3)n2)[C@@H](c2ccccc2)O1 | 0.011
O=C1N[C@H](c2cncc(C#Cc3cccnc3)c2)[C@@H](c2ccc(F)cc2)O1 | 0.11
O=C1N[C@H](c2cncc(C#Cc3ccccn3)c2)[C@@H](c2ccc(F)cc2)O1 | 0.069
O=C1N[C@H](c2cncc(C#Cc3ncccc3F)c2)[C@@H](c2ccc(F)cc2)O1 | 0.13
O=C1N[C@H](c2cccc(C#Cc3ccccc3)c2)[C@@H](c2ccccc2)O1 | 0.001
O=C1N[C@H](c2cncc(C#Cc3ccnc(F)c3)c2)[C@@H](c2ccc(F)cc2)O1 | 0.11
O=C1N[C@H](c2ccnc(C#Cc3ccccc3)c2)[C@@H](c2ccccc2)O1 | 0.021
O=C1N[C@H](c2cncc(C#Cc3ccccc3)c2)[C@@H](c2ccccc2)O1 | 0.047
O=C1N[C@H](c2cncc(C#Cc3ccccc3)c2)[C@@H](c2ccc(F)cc2)O1 | 0.009
O=C1N[C@H](c2cncc(C#Cc3ccncc3)c2)[C@@H](c2ccc(F)cc2)O1 | 0.1
O=C1N[C@H](c2cc(C#Cc3ccccc3)ccn2)[C@@H](c2ccccc2)O1 | 0.01

* * *

- experiment: Ratio of drug uptake in C57BL/6 mouse brain to plasma at 1 mg/kg, sc measured after 60 mins
- Format: ADME, organism-based
- run conditions: read-out: BPR

molecule | Kp at 1 h
O=C1N[C@H](c2cncc(C#Cc3ncccc3F)c2)[C@@H](c2ccc(F)cc2)O1 | 0.15

* * *

- experiment: Ratio of drug uptake in C57BL/6 mouse brain to plasma at 10 mg/kg, sc measured after 60 mins
- Format: ADME, organism-based
- run conditions: read-out: BPR

molecule | Kp at 1 h
O=C1N[C@H](c2cncc(C#Cc3ncccc3F)c2)[C@@H](c2ccc(F)cc2)O1 | 0.1 to 0.11

* * *

- experiment: Drug uptake in C57BL/6 mouse brain at 10 mg/kg, sc measured after 60 mins
- Type: ADME, organism-based
- run conditions: read-out: Drug uptake

molecule | unit name | concentration at 1 h
O=C1N[C@H](c2cncc(C#Cc3ncccc3F)c2)[C@@H](c2ccc(F)cc2)O1 | nM | 542

* * *

pEC50 listing for selected compounds.
- tested system: Metabotropic glutamate receptor 5 (Homo sapiens)
- experiment: Agonist activity at human mGluR5A transfected in HEK293 cells assessed as induction of calcium release by FLIPR assay
- Assay type: functional, cell-based
pEC50: −log10 of the molar value.

molecule | tested system | pEC50
O=C1N[C@H](c2cncc(C#Cc3ccccc3)c2)[C@@H](c2c(F)cccc2F)O1 | Metabotropic glutamate receptor 5 (Homo sapiens) | < 5.52
O=C1N[C@H](c2cncc(C#Cc3ccccc3)c2)[C@@H](c2ccccc2F)O1 | Metabotropic glutamate receptor 5 (Homo sapiens) | < 5.52
O=C1N[C@H](c2cncc(C#Cc3ccccc3)c2)[C@@H](c2ccccc2Cl)O1 | Metabotropic glutamate receptor 5 (Homo sapiens) | < 5.52
O=C1N[C@H](c2cncc(C#Cc3cccnc3)c2)[C@@H](c2ccc(F)cc2)O1 | Metabotropic glutamate receptor 5 (Homo sapiens) | 6.56
O=C1N[C@H](c2cncc(C#Cc3ncccc3F)c2)[C@@H](c2ccc(F)cc2)O1 | Metabotropic glutamate receptor 5 (Homo sapiens) | < 5.52
O=C1N[C@H](c2cncc(C#Cc3ccccc3)c2)[C@@H](c2ccccc2)O1 | Metabotropic glutamate receptor 5 (Homo sapiens) | < 5.52
O=C1N[C@H](c2cncc(C#Cc3ccccc3)c2)[C@@H](c2cccc(Cl)c2)O1 | Metabotropic glutamate receptor 5 (Homo sapiens) | < 5.52
O=C1N[C@H](c2cncc(C#Cc3ccccn3)c2)[C@@H](c2ccc(F)cc2)O1 | Metabotropic glutamate receptor 5 (Homo sapiens) | < 5.52

* * *

- tested system: Metabotropic glutamate receptor 5 (Homo sapiens, UniProt P41594)
- Sequence (P41594 whole entry): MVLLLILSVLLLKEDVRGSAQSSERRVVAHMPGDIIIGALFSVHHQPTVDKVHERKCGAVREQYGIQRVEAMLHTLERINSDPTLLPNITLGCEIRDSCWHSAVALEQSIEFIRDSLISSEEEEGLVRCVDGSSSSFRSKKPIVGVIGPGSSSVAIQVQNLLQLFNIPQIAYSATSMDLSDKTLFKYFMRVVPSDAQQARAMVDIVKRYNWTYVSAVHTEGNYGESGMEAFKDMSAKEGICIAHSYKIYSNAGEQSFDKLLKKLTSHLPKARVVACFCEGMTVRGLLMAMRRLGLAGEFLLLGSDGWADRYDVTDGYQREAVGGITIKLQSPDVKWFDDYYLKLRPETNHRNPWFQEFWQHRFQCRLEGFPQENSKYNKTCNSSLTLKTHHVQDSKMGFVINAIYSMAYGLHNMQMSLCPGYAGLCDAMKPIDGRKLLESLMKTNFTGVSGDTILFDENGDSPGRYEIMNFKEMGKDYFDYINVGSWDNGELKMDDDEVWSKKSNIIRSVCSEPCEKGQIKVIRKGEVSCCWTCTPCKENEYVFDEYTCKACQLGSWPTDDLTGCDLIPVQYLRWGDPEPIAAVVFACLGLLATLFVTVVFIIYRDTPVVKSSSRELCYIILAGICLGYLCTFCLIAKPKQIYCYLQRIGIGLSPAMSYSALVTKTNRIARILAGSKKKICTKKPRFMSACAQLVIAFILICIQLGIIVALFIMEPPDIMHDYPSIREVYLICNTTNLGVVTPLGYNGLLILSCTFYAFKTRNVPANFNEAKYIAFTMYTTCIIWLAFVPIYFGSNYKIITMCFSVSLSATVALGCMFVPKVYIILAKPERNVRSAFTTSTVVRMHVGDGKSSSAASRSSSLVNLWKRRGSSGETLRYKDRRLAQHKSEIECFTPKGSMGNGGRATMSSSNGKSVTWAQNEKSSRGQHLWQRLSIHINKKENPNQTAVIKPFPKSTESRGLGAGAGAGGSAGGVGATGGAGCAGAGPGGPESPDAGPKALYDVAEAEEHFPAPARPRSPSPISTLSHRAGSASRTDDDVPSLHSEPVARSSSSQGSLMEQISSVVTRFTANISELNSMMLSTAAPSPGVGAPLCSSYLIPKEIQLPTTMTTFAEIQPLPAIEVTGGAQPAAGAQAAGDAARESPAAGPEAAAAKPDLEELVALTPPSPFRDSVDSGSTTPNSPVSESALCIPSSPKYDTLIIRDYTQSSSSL
- experiment: Negative allosteric modulation of human mGluR5A transfected in HEK293 cells assessed as inhibition of L-glutamate-induced calcium release after 10 mins by FLIPR assay
pIC50: −log10 of the molar value.

molecule | pIC50
O=C1N[C@H](c2cncc(C#Cc3ccccc3)c2)[C@@H](c2c(F)cccc2F)O1 | 7.57

* * *

- experiment: Metabolic stability in human liver microsomes assessed as compound remaining after 10 mins
- Assay type: ADME, Microsome
- run conditions: read-out: Stability
Measured remaining at 10 min by item
experimental readout: remaining at 10 min (%)

molecule | experimental readout | recorded number
O=C1N[C@H](c2cncc(C#Cc3ncccc3F)c2)[C@@H](c2ccc(F)cc2)O1 | remaining at 10 min | 100
O=C1N[C@H](c2cncc(C#Cc3ccccc3)c2)[C@@H](c2ccc(F)cc2)O1 | remaining at 10 min | 81
O=C1N[C@H](c2cncc(C#Cc3ccnc(F)c3)c2)[C@@H](c2ccc(F)cc2)O1 | remaining at 10 min | 92
O=C1N[C@H](c2cncc(C#Cc3cccnc3)c2)[C@@H](c2ccc(F)cc2)O1 | remaining at 10 min | 76
O=C1N[C@H](c2cncc(C#Cc3ccncc3)c2)[C@@H](c2ccc(F)cc2)O1 | remaining at 10 min | 70
O=C1N[C@H](c2cncc(C#Cc3cncc(F)c3)c2)[C@@H](c2ccc(F)cc2)O1 | remaining at 10 min | 97
O=C1N[C@H](c2cncc(C#Cc3ccccn3)c2)[C@@H](c2ccc(F)cc2)O1 | remaining at 10 min | 97

* * *

- tested system: Metabotropic glutamate receptor 5 (Homo sapiens)
- experiment: Displacement of [3H]-MPEP from human mGluR5A transfected in HEK293 cells after 60 mins by microbeta liquid scintillation counting analysis
- Type: cell-based
pKi: −log10 of the molar value.
experimental readout: pKi

molecule | recorded number
O=C1N[C@H](c2cccc(C#Cc3ccccc3)c2)[C@@H](c2ccccc2)O1 | 8.05

* * *

- experiment: Drug uptake in C57BL/6 mouse plasma at 1 mg/kg, sc measured after 60 mins
- Type: ADME, organism-based

molecule | unit name | concentration at 1 h
O=C1N[C@H](c2cncc(C#Cc3ncccc3F)c2)[C@@H](c2ccc(F)cc2)O1 | nM | 375

* * *

Listed here: items and their measured fraction unbound.
- experiment: Fraction unbound in human serum
- Type: ADME, cell-free
experimental readout: fraction unbound

molecule | experimental readout | recorded number
O=C1N[C@H](c2cc(C#Cc3ccccc3)ccn2)[C@@H](c2ccccc2)O1 | fraction unbound | 0.006
O=C1N[C@H](c2cncc(C#Cc3ccccc3)c2)[C@@H](c2ccc(F)cc2)O1 | fraction unbound | 0.004
O=C1N[C@H](c2cncc(C#Cc3ncccc3F)c2)[C@@H](c2ccc(F)cc2)O1 | fraction unbound | 0.076
O=C1N[C@H](c2cncc(C#Cc3ccccn3)c2)[C@@H](c2ccc(F)cc2)O1 | fraction unbound | 0.064
O=C1N[C@H](c2cncc(C#Cc3ccccc3)c2)[C@@H](c2ccccc2)O1 | fraction unbound | 0.008

* * *

- experiment: Fraction unbound in human serum
- Format: ADME, cell-free

molecule | readout relation | fraction unbound
O=C1N[C@H](c2cncc(C#Cc3cccnc3)c2)[C@@H](c2ccc(F)cc2)O1 | = | 0.082
O=C1N[C@H](c2ccnc(C#Cc3ccccc3)c2)[C@@H](c2ccccc2)O1 | = | 0.005
O=C1N[C@H](c2cncc(C#Cc3ccncc3)c2)[C@@H](c2ccc(F)cc2)O1 | = | 0.14
O=C1N[C@H](c2cncc(C#Cc3ccnc(F)c3)c2)[C@@H](c2ccc(F)cc2)O1 | = | 0.034
O=C1N[C@H](c2cccc(C#Cc3ccccc3)n2)[C@@H](c2ccccc2)O1 | = | 0.009
O=C1N[C@H](c2cccc(C#Cc3ccccc3)c2)[C@@H](c2ccccc2)O1 | < | 0.001
O=C1N[C@H](c2cncc(C#Cc3cncc(F)c3)c2)[C@@H](c2ccc(F)cc2)O1 | = | 0.035

* * *

- experiment: Drug uptake in C57BL/6 mouse plasma at 10 mg/kg, sc measured after 60 mins
- Format: ADME, organism-based
experimental readout: concentration at 1 h

molecule | result
O=C1N[C@H](c2cncc(C#Cc3ncccc3F)c2)[C@@H](c2ccc(F)cc2)O1 | 5.25 µM

* * *

- tested system: UniProt P41594
- experiment: Agonist activity at human mGluR5A transfected in HEK293 cells assessed as induction of calcium release by FLIPR assay
- Format: functional, cell-based
pEC50: −log10 of the molar value.
Overview of recorded pEC50 for various compounds
experimental readout: pEC50

molecule | experimental readout | readout relation | recorded number
O=C1N[C@H](c2cncc(C#Cc3ccnc(F)c3)c2)[C@@H](c2ccc(F)cc2)O1 | pEC50 | < | 5.52
O=C1N[C@H](c2cncc(C#Cc3ccccc3)c2)[C@@H](c2ccc(F)c(F)c2)O1 | pEC50 | = | 7.30
O=C1N[C@H](c2cncc(C#Cc3ccncc3)c2)[C@@H](c2ccc(F)cc2)O1 | pEC50 | < | 5.52
O=C1N[C@H](c2cncc(C#Cc3ccccc3)c2)[C@@H](c2ccc(Cl)cc2)O1 | pEC50 | = | 6.48
O=C1N[C@H](c2cncc(C#Cc3ccccc3)c2)[C@@H](c2cc(F)cc(F)c2)O1 | pEC50 | < | 5.52
O=C1N[C@H](c2cncc(C#Cc3ccccc3)c2)[C@@H](c2ccc(F)cc2)O1 | pEC50 | = | 6.30
O=C1N[C@H](c2cncc(C#Cc3ccccc3)c2)[C@@H](c2ccc(F)cc2F)O1 | pEC50 | < | 5.52
O=C1N[C@H](c2cncc(C#Cc3ccccc3)c2)[C@@H](c2cccc(F)c2F)O1 | pEC50 | < | 5.52
O=C1N[C@H](c2cncc(C#Cc3cncc(F)c3)c2)[C@@H](c2ccc(F)cc2)O1 | pEC50 | = | 6.50
